Reference source for all entries: ChEMBL document CHEMBL4014283

# study.target: Histone deacetylase 8 (Schistosoma mansoni) (UniProt A5H660)
# Sequence (A5H660 as listed by the source): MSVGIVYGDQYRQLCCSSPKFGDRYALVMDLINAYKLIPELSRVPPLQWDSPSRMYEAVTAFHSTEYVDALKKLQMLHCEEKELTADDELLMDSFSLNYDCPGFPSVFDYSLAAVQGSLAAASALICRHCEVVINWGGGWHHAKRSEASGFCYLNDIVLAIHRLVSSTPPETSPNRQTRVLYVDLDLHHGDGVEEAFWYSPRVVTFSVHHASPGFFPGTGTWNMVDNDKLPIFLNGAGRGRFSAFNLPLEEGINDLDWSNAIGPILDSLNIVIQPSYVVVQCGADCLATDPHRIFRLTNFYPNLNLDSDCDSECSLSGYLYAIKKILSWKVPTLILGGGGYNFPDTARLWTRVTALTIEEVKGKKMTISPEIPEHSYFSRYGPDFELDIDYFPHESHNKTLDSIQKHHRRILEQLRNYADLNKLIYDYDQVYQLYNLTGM
# experiment.summary: Inhibition of Schistosoma mansoni KDAC8 at 30 uM using (FAM)-labeled peptide as substrate after 60 mins by microfluidic assay
Reported values of inhibition for individual entries
Please give a number only; it is taken to be in %.

smiles_str=CC(C)[C@@H]1NC(=O)[C@@H]2CCCN2C(=O)[C@H]2CCCN2C(=O)C[C@H](C(=O)OCc2ccccc2)NC1=O readout=inhibition quantitative_readout=0
smiles_str=CC(C)(C)OC(=O)C[C@@H]1N=C(c2ccccc2)c2ccccc2N(CCCCC(=O)O)C1=O readout=inhibition quantitative_readout=0
smiles_str=CC(C)[C@@H]1NC(=O)[C@H]2CCCN2C(=O)[C@@H]2CCCN2C(=O)C[C@H](C(=O)NCCCSSCCCNC(=O)[C@H]2CC(=O)N3CCC[C@H]3C(=O)N3CCC[C@@H]3C(=O)N[C@@H](C(C)C)C(=O)N2)NC1=O readout=inhibition quantitative_readout=3.36
smiles_str=CC(C)[C@@H]1NC(=O)[C@@H]2CCCN2C(=O)[C@H]2CCCN2C(=O)C[C@@H](C(=O)NCCCS)NC1=O readout=inhibition quantitative_readout=0.84
smiles_str=C[C@@H](OCc1ccccc1)[C@@H]1N=C(c2ccccc2)c2ccccc2N(CCCCC(=O)NO)C1=O readout=inhibition quantitative_readout=20.5

Look up inhibition: CC(C)(C)OC[C@@H]1N=C(c2ccccc2)c2ccccc2N(CCCCC(=O)NO)C1=O
15.7

Look up inhibition: COC(=O)C(=Cc1ccccc1[N+](=O)[O-])C(=O)OC
3

Look up inhibition: CC(C)C[C@@H]1N=C(c2ccccc2)c2ccccc2NC1=O
0

Look up inhibition: CC(C)[C@@H]1N=C(c2ccccc2)c2ccccc2N(CCCCC(=O)NO)C1=O
20.6

Look up inhibition: C[C@@H]1N=C(c2ccccc2)c2ccccc2N(CCCCC(=O)NO)C1=O
16.9

Look up inhibition: CSCCCNC(=O)[C@H]1CC(=O)N2CCC[C@@H]2C(=O)N2CCC[C@H]2C(=O)N[C@@H](C(C)C)C(=O)N1
0

Look up inhibition: CC(C)(C)OC(=O)CC[C@@H]1N=C(c2ccccc2)c2ccccc2NC1=O
0

Look up inhibition: CC(C)[C@@H]1NC(=O)[C@H]2CCCN2C(=O)[C@@H]2CCCN2C(=O)C[C@@H](C(=O)NCCCS(C)(=O)=O)NC1=O
0

Look up inhibition: CSCC[C@@H]1N=C(c2ccccc2)c2ccccc2N(CCCCC(=O)O)C1=O
0
